- Study target: α2-receptors
- Assay notes: ALPHA-2 binding, p-125Iodoclonidine, canine brain (frontal cortex) membranes
- Set-up: species or system dog
- Experimental setup: radioligand, Saturation Analysis; read-out: Kd1 (high affinity)
Metric: Kd (nM)
Report the value in nM with no unit label.

Tell me its Kd given `Clc1cc(I)cc(Cl)c1NC1=NCCN1` as the entry. 0.15

----------
- Study target: β2-receptors (Canis lupus familiaris)
- Construct: The lungs of mongrel dogs were separated from cartilaginous airways and major blood vessels; from tissue; host or cells: mongrel dog lung membranes
- Sequence (P54833 whole entry): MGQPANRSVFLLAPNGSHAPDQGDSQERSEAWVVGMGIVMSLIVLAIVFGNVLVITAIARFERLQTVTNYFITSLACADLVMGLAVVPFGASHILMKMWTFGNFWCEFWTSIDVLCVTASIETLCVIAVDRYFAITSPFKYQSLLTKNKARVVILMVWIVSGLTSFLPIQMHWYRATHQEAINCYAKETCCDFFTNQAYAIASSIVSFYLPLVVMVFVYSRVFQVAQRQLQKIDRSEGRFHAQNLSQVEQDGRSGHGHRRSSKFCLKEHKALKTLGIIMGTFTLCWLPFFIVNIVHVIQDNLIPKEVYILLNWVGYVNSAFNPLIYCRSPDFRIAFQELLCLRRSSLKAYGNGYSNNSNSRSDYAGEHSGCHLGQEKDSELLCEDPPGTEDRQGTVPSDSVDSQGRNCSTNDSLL
- Assay notes: BETA-2 binding, 125Iodocyanopindolol (ICYP), canine lung membranes
- Parameters: species or system dog
- Experimental setup: radioligand, Saturation Analysis, Summary
Metric: pKd
Field pKd (float): negative decimal logarithm of the concentration in molar.

For β2-receptors (Canis lupus familiaris), give pKd of the listed molecule: CC(C)(C)NCC(O)COc1cccc2[nH]c(C#N)c(I)c12 (stereo not shown) 11.02
